- target system: Protein AF-9 (Homo sapiens)
- assay details: inhibitors of AF9 AHD–DOT1L interaction, biochemical, AlphaLISA, percent inhibition, MBP-tagged AHD (AID 1794804)
- reported conditions: MBP-AF9 AHD / biotin-DOT1L peptide binding, at 5 µM, stronger effect = higher value
Is inhibition at least 30%? Then 1. If not, 0.

Study these solved cases before continuing.
NCc1ccc(-c2ccc3cc(C(=O)NCC4CCNCC4)[nH]c3c2)cc1 :: 0
CS(=O)(=O)c1ccc(-c2ccc3cc(C(=O)NCC4CCNCC4)sc3c2)cc1 :: 1
O=C(NCC1CCNCC1)c1cc2ccc(Oc3ccc(Oc4ccc(Cl)cc4)cc3)cc2s1 :: 1
O=C(NCC1CCNCC1)c1cc2ccc(-c3ccc(-c4ccccc4)cc3)cc2o1 :: 0
O=C(NCc1ccc(-c2ccc3cc(C(=O)NCC4CCNCC4)oc3c2)cc1)OCc1ccccc1 :: 0

Attention now turns to another entry.
Item CC(C)(C)c1ccc(Nc2ccc3sc(C(=O)NCC4CCNCC4)cc3c2)cc1 with inhibition of 30% or above?
1

###

- target system: Protein AF-9 (Homo sapiens) (UniProt P42568)
- Sequence (P42568 whole entry, looked up): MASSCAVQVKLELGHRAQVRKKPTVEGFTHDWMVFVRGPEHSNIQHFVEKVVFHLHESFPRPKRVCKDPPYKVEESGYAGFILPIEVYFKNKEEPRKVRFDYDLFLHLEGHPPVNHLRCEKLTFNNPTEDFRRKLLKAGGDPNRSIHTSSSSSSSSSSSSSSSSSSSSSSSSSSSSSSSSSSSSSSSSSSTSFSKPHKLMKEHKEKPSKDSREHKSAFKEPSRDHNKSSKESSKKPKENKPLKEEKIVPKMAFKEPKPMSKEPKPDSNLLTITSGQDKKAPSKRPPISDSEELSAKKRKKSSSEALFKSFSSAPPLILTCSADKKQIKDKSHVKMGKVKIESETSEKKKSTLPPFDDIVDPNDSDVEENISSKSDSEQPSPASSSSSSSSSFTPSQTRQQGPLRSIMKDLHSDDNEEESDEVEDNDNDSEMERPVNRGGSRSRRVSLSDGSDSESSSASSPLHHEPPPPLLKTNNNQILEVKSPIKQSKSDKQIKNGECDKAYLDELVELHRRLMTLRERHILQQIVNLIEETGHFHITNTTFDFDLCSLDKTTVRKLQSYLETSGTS
- assay details: inhibitors of AF9 AHD–DOT1L interaction, biochemical, AlphaLISA, percent inhibition, MBP-tagged AHD (AID 1794804)
- reported conditions: MBP-AF9 AHD / biotin-DOT1L peptide binding, at 5 µM, stronger effect = higher value
measure name: inhibition (%)
Numbers only, in %.

Solved cases below.
O=C(NCC1CCNCC1)c1cc2ccc(-c3ccc(C(=O)N4CCC(N5CCCC5)CC4)cc3)cc2s1 :: 5
CCN(CC)c1ccc(-c2ccc3cc(C(=O)NCC4CCNCC4)sc3c2)cc1 :: 25
O=C(NCC1CCNCC1)c1cc2ccc(-c3ccc(N4CCNCC4)cc3)cc2o1 :: 38

For every listed record, write down its inhibition.
1. N#CCc1ccc(-c2ccc3cc(C(=O)NCC4CCNCC4)sc3c2)cc1
2. O=C(NCC1CCNCC1)c1cc2ccc(Nc3ccc(OC(F)(F)F)cc3)cc2o1
3. O=C(NCC1CCNCC1)c1cc2ccc(-c3ccc(C(=O)N4CCC(N5CCCCC5)CC4)cc3)cc2s1
4. O=C(NCC1CCNCC1)c1cc2ccc(N3CCC(N4CCCC4)CC3)cc2s1
5. O=C(NCC1CCNCC1)c1c[nH]c2ccc(-c3ccc(N4CCCCC4)cc3)cc12
6. CS(=O)(=O)c1ccc(-c2ccc3cc(C(=O)NCC4CCNCC4)oc3c2)cc1
7. O=C(NCC1CCNCC1)c1cc2cc(Nc3ccc(OC(F)(F)F)cc3)ccc2s1

[50, 23, 0, 20, 43, 19, 24]

###

- target system: Protein AF-9 (Homo sapiens) (UniProt P42568)
- assay details: inhibitors of AF9 AHD–DOT1L interaction, biochemical, AlphaLISA, percent inhibition, MBP-tagged AHD (AID 1794804)
- reported conditions: MBP-AF9 AHD / biotin-DOT1L peptide binding, at 5 µM
Activity calls are given as the source filed them.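 Rule for the calls: active = inhibition above 55% when tested at 5 µM; inactive = the rest.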
One label from this list, please: yes (1) for active, no (0) for inactive

Study these solved cases before continuing.
O=C(NCC1CCNCC1)c1cc2ccc(-c3ccc(N4CCOCC4)cc3)cc2s1 :: no (0)
O=C(NCC1CCNCC1)c1cc2ccc(-c3ccc(C(=O)N4CCCCC4)cc3)cc2s1 :: no (0)
NC(=O)c1ccc(-c2ccc3cc(C(=O)NCC4CCNCC4)sc3c2)cc1 :: no (0)
O=C(NCC1CCNCC1)c1coc2cc(-c3ccc(N4CCCCC4)cc3)ccc12 :: yes (1)
COc1ccc(Oc2ccc3cc(C(=O)NCC4CCNCC4)oc3c2)cc1 :: no (0)
N#Cc1cccc(-c2ccc3cc(C(=O)NCC4CCNCC4)[nH]c3c2)c1 :: no (0)
COc1ccc(-c2ccc3cc(C(=O)NCC4CCNCC4)sc3c2)cc1 :: no (0)
O=C(NCC1CCNCC1)c1cc2ccc(-c3ccc(O)cc3)cc2s1 :: no (0)

Attention now turns to another entry.
Assay outcome for O=C(NCC1CCNCC1)c1cc2ccc(Nc3ccc(N4CCCCC4)cc3)cc2o1 : what was it?
yes (1)
